// data source = patent US12084434B2

System: T47D pAKT (S473), PI3Kα H1047R mutation present
Assay: HTRF pAKT-T47D;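 also: assay medium was RPMI with 10% FBS and 0.2 units/ml bovine insulin, without phenol red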
Conditions: read-out: T47D pAKT IC50; T47D.1 cells, pAKT (S473) HTRF, 1 hour
PARAMETER: IC50

COMPOUND: Cc1c(C(NC(=O)Nc2cnc(N3CC(O)C3)nc2)C(F)(F)F)oc2c(Cl)cc(F)cc12 (single isomer, unassigned) [Compound 200]
STUDY_TARGET: T47D pAKT (S473), PI3Kα H1047R mutation present
IC50: < 1 µM

COMPOUND: Cc1c(C(NC(=O)Nc2cnc(N3CC(C)(O)C3)nc2)C(F)(F)F)oc2c(Cl)cc(F)cc12 (single isomer, unassigned) [Compound 201]
STUDY_TARGET: T47D pAKT (S473), PI3Kα H1047R mutation present
IC50: > 5 µM

Turning to the following compound.
## Input Which IC50 value is on record for Cc1c(C(NC(=O)Nc2cnc(N3CC4(COC4)C3)nc2)C(F)(F)F)oc2c(F)cc(F)cc12 (racemic) [Compound 171] ?
## Output > 5 µM
